All values here come from patent US20240327535A1.

System: T1, extracellular domain of rhesus monkey BCMA (rhesus monkey, UniProt F7FFA0 1-53)
T1 construct: extracellular domain; also called RhBCMA
T1 sequence (F7FFA0 entry or part of it): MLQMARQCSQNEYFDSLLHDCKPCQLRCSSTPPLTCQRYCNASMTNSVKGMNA
Test Summary: Octet BLI; Fab 200 nM
Here, each record is paired with measured Kd data.
Readout: Kd

binder="AB200-(2Vk35)_R2-VH-v9 (Fab, V domains shown) VH: QVQLVQSGAEVKKPGSSVKVSCKASGGTYSNYWIHWVRQAPGQGLEWMGATYRSQSDTNYNQKFKSRVTITADKSTSTAYMELSSLRSEDTAVYYCARGAIYHGFDVIDNWGQGTLVTVSS VL: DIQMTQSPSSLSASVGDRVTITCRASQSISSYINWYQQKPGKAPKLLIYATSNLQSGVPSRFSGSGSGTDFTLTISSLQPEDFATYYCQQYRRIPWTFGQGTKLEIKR" readout=Kd readout_value="103 nM"
binder="AB200-(2Vk35)_R2-VH-v52 (Fab, V domains shown) VH: QVQLVQSGAEVKKPGSSVKVSCKASGGSFSNYWIHWVRQAPGQGLEWMGATYRIQSDTYYAQKFKSRVTITADKSTSTAYMELSSLRSEDTAVYYCARGAIFHGYDVIDNWGQGTLVTVSS VL: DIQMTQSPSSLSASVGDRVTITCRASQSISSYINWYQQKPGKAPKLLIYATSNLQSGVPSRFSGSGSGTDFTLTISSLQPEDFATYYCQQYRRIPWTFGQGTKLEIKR" readout=Kd readout_value="25.7 nM"
binder="AB200-(2Vk35)_R2-VH-v76 (Fab, V domains shown) VH: QVQLVQSGAEVKKPGSSVKVSCKASGGTFSNYWIHWVRQAPGQGLEWMGATYRIQSDTYYNEKFKSRVTITADKSTSTAYMELSSLRSEDTAVYYCARGAIYHGFDVIDNWGQGTLVTVSS VL: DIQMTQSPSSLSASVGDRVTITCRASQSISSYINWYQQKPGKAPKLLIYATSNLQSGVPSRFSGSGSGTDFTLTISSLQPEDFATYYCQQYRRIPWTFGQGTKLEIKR" readout=Kd readout_value="8.46 nM"
